- assay-explanation: The drug is tested on Z-027 corresponding to metagenome with ENA study accession number: PRJEB37062 and ENA sample accession number: ERS12561826 for biotransformation under anaerobic condition. The drug concentrations were measured over 9 timepoints collected between 0 and 24 hours of incubation by liquid-chromatography-coupled mass spectrometry (LC–MS); further: call rule not given here
- recorded-conditions: 2 µM

molecule	Bacterial Biotransformation
CN(C/C=C/C#CC(C)(C)C)Cc1cccc2ccccc12	Compound NOT metabolized
C=C[C@H]1CN2CC[C@H]1C[C@H]2[C@H](O)c1ccnc2ccc(OC)cc12.C=C[C@H]1CN2CC[C@H]1C[C@H]2[C@H](O)c1ccnc2ccc(OC)cc12.O.O.O=S(=O)(O)O [QUININE SULFATE]	Compound NOT metabolized
CC#C[C@]1(O)CC[C@H]2[C@@H]3CCC4=CC(=O)CCC4=C3[C@@H](c3ccc(N(C)C)cc3)C[C@@]21C	Compound NOT metabolized

###

- recorded-conditions: human gut metagenome, 24 h, 2 µM
measured-endpoint: Bacterial Biotransformation

> print(dat)
                                   molecule                  observed
1  C[C@]12CCC(=O)C=C1[C@@H]1C[C@@H]1[C@H]1[C@@H]3[C@@H]4C[C@@H]4[C@@]4(CCC(=O)O4)[C@@]3(C)CC[C@@H]12 [DROSPIRENONE]      Compound metabolized
2  C[C@]12C=CC(=O)C=C1CC[C@@H]1[C@@H]2C(=O)C[C@@]2(C)[C@H]1CC[C@]2(O)C(=O)CO [PREDNISONE]      Compound metabolized
3  CCOc1ccc2nc(S(N)(=O)=O)sc2c1 [ETHOXZOLAMIDE]  Compound NOT metabolized
4  CCN(CC)CCOC(=O)C1(C2CCCCC2)CCCCC1 [DICYCLOMINE]  Compound NOT metabolized

###

- assay-explanation: The drug is tested on WLS-010 corresponding to human gut metagenome with ENA study accession number: PRJEB37062 and ENA sample accession number: ERS12561743 for biotransformation under anaerobic condition. The drug concentrations were measured over 9 timepoints collected between 0 and 24 hours of incubation by liquid-chromatography-coupled mass spectrometry (LC–MS)
- recorded-conditions: 2 µM
measured-endpoint: Bacterial Biotransformation

Sample records with Bacterial Biotransformation:
> print(dat)
                                   compound            measured.endpoint                  observed
1  CCCC(C)(COC(N)=O)COC(=O)NC(C)C (stereo not drawn)  Bacterial Biotransformation      Compound metabolized
2  CC1Cc2ccccc2N1NC(=O)c1ccc(Cl)c(S(N)(=O)=O)c1 (stereo not drawn) [INDAPAMIDE]  Bacterial Biotransformation  Compound NOT metabolized
3  CCOC(=O)[C@H](CCc1ccccc1)N[C@@H](C)C(=O)N1CCC[C@H]1C(=O)O.O=C(O)/C=C\C(=O)O [ENALAPRIL MALEATE]  Bacterial Biotransformation  Compound NOT metabolized
4  COc1ccc([C@@H]2Sc3ccccc3N(CCN(C)C)C(=O)[C@@H]2OC(C)=O)cc1  Bacterial Biotransformation      Compound metabolized
5  OCCN(CCO)c1nc(N2CCCCC2)c2nc(N(CCO)CCO)nc(N3CCCCC3)c2n1  Bacterial Biotransformation      Compound metabolized
6    CC(=O)Nc1ccc(OC(C)=O)cc1 [DIACETAMATE]  Bacterial Biotransformation      Compound metabolized
7  O=C1N=C([O-])NC1(c1ccccc1)c1ccccc1.[Na+] [PHENYTOIN SODIUM]  Bacterial Biotransformation      Compound metabolized

For the next question, use this compound.
Please look up its Bacterial Biotransformation: Cc1nc(Nc2ncc(C(=O)Nc3c(C)cccc3Cl)s2)cc(N2CCN(CCO)CC2)n1 [DASATINIB ANHYDROUS]
Compound metabolized

###

- assay-explanation: The drug is tested on WLS-039 corresponding to human gut metagenome with ENA study accession number: PRJEB37062 and ENA sample accession number: ERS12561746 for biotransformation under anaerobic condition. The drug concentrations were measured over 9 timepoints collected between 0 and 24 hours of incubation by liquid-chromatography-coupled mass spectrometry (LC–MS)
- recorded-conditions: 2 µM
measured-endpoint: Bacterial Biotransformation

compound	Bacterial Biotransformation
COC(=O)[C@H](c1ccccc1Cl)N1CCc2sccc2C1.O=S(=O)(O)O [CLOPIDOGREL BISULFATE]	Compound NOT metabolized
C[C@]12CCC(=O)C=C1[C@@H]1C[C@@H]1[C@H]1[C@@H]3[C@@H]4C[C@@H]4[C@@]4(CCC(=O)O4)[C@@]3(C)CC[C@@H]12 [DROSPIRENONE]	Compound metabolized
CCN(CC)CCNC(=O)c1cc(S(C)(=O)=O)ccc1OC [TIAPRIDE]	Compound NOT metabolized
CC(C)C[C@H]1C(=O)N2CCC[C@H]2[C@]2(O)O[C@](NC(=O)[C@@H]3C=C4c5cccc6[nH]c(Br)c(c56)C[C@H]4N(C)C3)(C(C)C)C(=O)N12.CS(=O)(=O)O [BROMOCRIPTINE MESYLATE]	Compound metabolized
CNNCc1ccc(C(=O)NC(C)C)cc1 [PROCARBAZINE]	Compound NOT metabolized

Batch of 2 compounds: report Bacterial Biotransformation for each.
1. CN[C@H]1CC[C@@H](c2ccc(Cl)c(Cl)c2)c2ccccc21 [SERTRALINE]
2. COc1ccnc(C[S+]([O-])c2nc3ccc(OC(F)F)cc3[nH]2)c1OC (configuration not stated) [PANTOPRAZOLE]

1. Compound metabolized
2. Compound metabolized

###

- assay-explanation: The drug is tested on Z-026 corresponding to metagenome with ENA study accession number: PRJEB37062 and ENA sample accession number: ERS12561825 for biotransformation under anaerobic condition. The drug concentrations were measured over 9 timepoints collected between 0 and 24 hours of incubation by liquid-chromatography-coupled mass spectrometry (LC–MS)
- recorded-conditions: 2 µM
measured-endpoint: Bacterial Biotransformation

Study these solved cases before continuing.
molecule	measured-endpoint	observed
O=C1CN2Cc3c(ccc(Cl)c3Cl)N=C2N1 [ANAGRELIDE]	Bacterial Biotransformation	Compound NOT metabolized
CC(=O)Nc1ccc(OC(C)=O)cc1 [DIACETAMATE]	Bacterial Biotransformation	Compound metabolized
CSc1ccc2c(c1)C(N1CCN(C)CC1)Cc1ccccc1S2.O=C(O)/C=C\C(=O)O (centres undefined)	Bacterial Biotransformation	Compound NOT metabolized
CC(N)C12CC3CC(CC(C3)C1)C2 (centres undefined) [RIMANTADINE]	Bacterial Biotransformation	Compound NOT metabolized
Nc1nc(N)nc(-c2cc(Cl)ccc2Cl)n1.O=C(O)/C=C\C(=O)O [IRSOGLADINE MALEATE]	Bacterial Biotransformation	Compound NOT metabolized
CC(C)C[C@H]1C(=O)N2CCC[C@H]2[C@]2(O)O[C@](NC(=O)[C@@H]3C=C4c5cccc6[nH]c(Br)c(c56)C[C@H]4N(C)C3)(C(C)C)C(=O)N12.CS(=O)(=O)O [BROMOCRIPTINE MESYLATE]	Bacterial Biotransformation	Compound metabolized
Br.CN1CCC[C@@H]1Cc1c[nH]c2ccc(CCS(=O)(=O)c3ccccc3)cc12 [ELETRIPTAN HYDROBROMIDE]	Bacterial Biotransformation	Compound NOT metabolized
CC(=O)CCCCn1c(=O)c2c(ncn2C)n(C)c1=O [PENTOXIFYLLINE]	Bacterial Biotransformation	Compound NOT metabolized

If you can, please state the reported Bacterial Biotransformation value of O=C(NC(Cc1cc(=O)[nH]c2ccccc12)C(=O)O)c1ccc(Cl)cc1 (centres undefined) [REBAMIPIDE] .
Compound NOT metabolized

###

- assay-explanation: The drug is tested on WLS-073 corresponding to human gut metagenome with ENA study accession number: PRJEB37062 and ENA sample accession number: ERS12561749 for biotransformation under anaerobic condition. The drug concentrations were measured over 9 timepoints collected between 0 and 24 hours of incubation by liquid-chromatography-coupled mass spectrometry (LC–MS)
- recorded-conditions: 2 µM
measured-endpoint: Bacterial Biotransformation

Example entries and their recorded answers appear below.
> print(dat)
                                   compound                  observed
1  COC(=O)C(c1ccccc1)C1CCCCN1 (stereo not given) [METHYLPHENIDATE]  Compound NOT metabolized
2  CC(C)(C)NCC(O)COc1cccc2c1CC(O)C(O)C2 (stereo not given)  Compound NOT metabolized
3  CN1CCN(C2=Nc3ccccc3Oc3ccc(Cl)cc32)CC1.O=C(O)CCC(=O)O [LOXAPINE SUCCINATE]  Compound NOT metabolized
4  CCN(CC)CCNC(=O)c1cc(S(C)(=O)=O)ccc1OC [TIAPRIDE]  Compound NOT metabolized

Continue with the next compound.
Any idea what its Bacterial Biotransformation is? The compound is CC(C)NCC(O)COc1ccc(CC(N)=O)cc1 (stereo not given)
Compound NOT metabolized

###

- recorded-conditions: human gut metagenome, 24 h, 2 µM
measured-endpoint: Bacterial Biotransformation

Below are worked cases with known answers.
> print(dat)
                                   compound            measured.endpoint                  observed
1  COc1cc(NC(C)CCCN)c2ncccc2c1.O=P(O)(O)O.O=P(O)(O)O (stereo not drawn) [PRIMAQUINE PHOSPHATE]  Bacterial Biotransformation  Compound NOT metabolized
2  CC#CCn1c(N2CCC[C@@H](N)C2)nc2c1c(=O)n(Cc1nc(C)c3ccccc3n1)c(=O)n2C [LINAGLIPTIN]  Bacterial Biotransformation  Compound NOT metabolized
3  CCOC(=O)[C@H](CCc1ccccc1)N[C@@H](C)C(=O)N1Cc2ccccc2C[C@H]1C(=O)O  Bacterial Biotransformation      Compound metabolized
4  CC(C)c1c(CN(C)C(C)Cc2ccccc2)n(C)n(-c2ccccc2)c1=O (stereo not drawn) [FAMPROFAZONE]  Bacterial Biotransformation      Compound metabolized
5  C#C[C@]1(OC(C)=O)CC[C@H]2[C@@H]3CCC4=CC(=O)CC[C@@H]4[C@H]3CC[C@@]21C [NORETHINDRONE ACETATE]  Bacterial Biotransformation      Compound metabolized
6  COC1=C(OC)C(=O)C(CCCCCCCCCCO)=C(C)C1=O [IDEBENONE]  Bacterial Biotransformation      Compound metabolized
7  CCN(CC)C(=O)C1(c2ccccc2)CC1CN (stereo not drawn)  Bacterial Biotransformation  Compound NOT metabolized

Pending compound:
Which measured Bacterial Biotransformation value corresponds to CN(C)CCOC(C)(c1ccccc1)c1ccccn1.O=C(O)CCC(=O)O (stereo not drawn) [DOXYLAMINE SUCCINATE] ?
Compound NOT metabolized
